Species on record: Bos taurus
Assay: Inhibition of calf brain tubulin polymerization at 20 uM after 20 mins by turbidimetric method
readout-label: inhibition (%)

A: C=C(c1cc(OC)c(OC)c(OC)c1)c1ccc2ccccc2c1
B: COc1ccc(C(O)c2ccc3c(ccn3C)c2)c(OC)c1OC (stereo not given)
C: C=C(c1ccc(OC)cc1)c1ccc(OC)c(OC)c1OC
D: C=C(c1ccc2c(ccn2CC)c1)c1ccc(OC)c(OC)c1OC
Input: Order the entries above from lowest to highest inhibition. # format: label list in the order the request specifies
Output: B, C, D, A
(B: 9%, C: 16%, D: 34%, A: 82%)

###

Experiment: Inhibition of calf brain tubulin polymerization after 20 mins by turbidimetric method
Design: species or system Bos taurus
readout-label: IC50 (µM)

Worked examples, 3 compounds total:
smiles-entry: COc1cc(C(=O)c2ccc3ccccc3c2)cc(OC)c1OC
IC50 (µM): 1.1
--
smiles-entry: C=C(c1ccc(OC)c(O)c1)c1ccc(OC)c(OC)c1OC
IC50 (µM): 12.2
--
smiles-entry: CCn1ccc2cc(C(=O)c3ccc(OC)c(OC)c3OC)ccc21
IC50 (µM): 5.6

1: COc1ccc(C(=O)c2cc(OC)c(OC)c(OC)c2)cc1N
2: C=C(c1cc(OC)c(OC)c(OC)c1)c1ccc2ccccc2c1
Input: Would you mind telling me which has the lower recorded IC50 between 1 and 2 ? Response format: the label of the selected entry.
Output: 1

All values here come from ChEMBL document CHEMBL1152517.
